Target: T1, human CD47 (human, UniProt Q08722 19-139, limits assumed, biotinylated in the ELISAs (site not stated))
T1 construct: also called biotinylated CD47; CD47 receptor
T1 sequence (Q08722 19-139 limits assumed): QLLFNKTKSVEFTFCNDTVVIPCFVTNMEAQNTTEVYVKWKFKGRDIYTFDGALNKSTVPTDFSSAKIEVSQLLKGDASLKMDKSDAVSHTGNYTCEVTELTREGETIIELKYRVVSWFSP
Test: SPR (BIACORE)
outcomeMeasure: koff (s⁻¹)
Numeric only. Scale: s⁻¹

Q. Requested field: koff. Item: C47A8 (antibody, V domains shown, also called CD47A8) VH: QVQLVQSGAEVKKPGASVKVSCKASGYTFTSYYMHWVRQAPGQGLEWMGIINPSGGSTSYAQKFQGRVTMTRDTSTSTVYMELSSLRSEDTAVYYCARSTLWFSEFDYWGQGTLVTVSS VL: QSVLTQPSSVSASPGQSITISCSGTSSDVGGHNYVSWYQQHPGKAPKLMIYDVTKRPSGVPDRFSGSKSGNTASLTVSGLQAEDEADYYCCSYAGSRVYVFGTGTKLTVL
A. 0.047
